# Tested on: MDA-MB-231 complex spheroid viability
# method summary: Anticancer human tumor MDA-MB-231/ATCC cell line growth inhibition;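 also: drug exposure lasted 7 days starting on day 3 of spheroid growth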
# setup conditions: second compound 1 µM; first compound 0.316 µM; stronger effect = lower value
property label: viability, T/C (%)

CC1(C)CCC(CN2CCN(c3ccc(C(=O)NS(=O)(=O)c4ccc(NCC5CCOCC5)c([N+](=O)[O-])c4)c(Oc4cnc5[nH]ccc5c4)c3)CC2)=C(c2ccc(Cl)cc2)C1 + NC1CCC(NC2CC2c2ccccc2)CC1 = 99.4
CC1COCCN1c1cc(-c2ccnn2C)c2ccnc(-c3ccn[nH]3)c2n1 (stereo not drawn) + NC1CC1c1ccc(-c2cccc(O)c2)cc1 = 14.3
COc1cc(Nc2ncc3c(n2)-c2ccc(Cl)cc2C(c2c(F)cccc2OC)=NC3)ccc1C(=O)O + NC1CCC(NC2CC2c2ccccc2)CC1 = 51.5

Values from PubChem BioAssay AID1918953
